# credit: patent US20240352133A1

Target: Recombinant human his-tagged IGF 1R extracellular domain protein (human) (UniProt P08069)
Test: SPR, captured antibody, pH 7.4
Tag: fulfilled if measured koff is not below 0.003 s⁻¹, not fulfilled if it is.

Consider the following illustrative entries.
{"binder": "VRDN-03121 (antibody, V domains shown) VH: EVQLVESGGGVVQPGRSLRLSCAASGFTFSSYSMHWVRQAPGKGLEWVAVIWYDGSSKYYADSVKSRFTISRDNSKNTLYLQMNSLRAEDTAVYYCARELGRRYFDIWGRGTLVTVSS VL: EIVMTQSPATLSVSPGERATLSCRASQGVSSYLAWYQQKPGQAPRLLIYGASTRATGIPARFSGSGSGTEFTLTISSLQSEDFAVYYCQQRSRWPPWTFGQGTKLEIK", "label": "not fulfilled"}
{"binder": "VRDN-03129 (antibody, V domains shown) VH: EVQLVESGGGVVQPGRSLRLSCAASGFTFSSYSMHWVRQAPGKGLEWVAIIWFDGSNKYYADSVKSRFTISRDNSKNTLYLQMNSLRAEDTAVYYCARELGRRYFDIWGQGTLVTVSS VL: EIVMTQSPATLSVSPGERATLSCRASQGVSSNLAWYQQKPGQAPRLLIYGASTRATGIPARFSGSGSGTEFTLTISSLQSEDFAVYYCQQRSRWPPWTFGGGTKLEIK", "label": "fulfilled"}
{"binder": "VRDN-03108 (antibody, V domains shown) VH: QVQLVESGGGVVQPGRSLRLSCAASGFTFSSYSMHWVRQAPGKGLEWVAIIWFDGSSKYYVDSVKGRFTISRDNSKNTLYLQMNSLRAEDTAVYYCARELGRRYFDIWGRGTLVTVSS VL: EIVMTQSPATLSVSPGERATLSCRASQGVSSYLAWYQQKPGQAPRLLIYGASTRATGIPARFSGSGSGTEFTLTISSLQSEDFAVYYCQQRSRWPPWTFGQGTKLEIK", "label": "not fulfilled"}

Please tell me: is the binder VRDN-03123 (antibody, V domains shown) VH: EVQLVESGGGVVQPGRSLRLSCAASGFTFDDYAMHWVRQAPGKGLEWVAIIWFDGSSKYYADSVKGRFTISRDNSKNTLYLQMNSLRAEDTAVYYCARELGRRYFDIWGQGTLVTVSS VL: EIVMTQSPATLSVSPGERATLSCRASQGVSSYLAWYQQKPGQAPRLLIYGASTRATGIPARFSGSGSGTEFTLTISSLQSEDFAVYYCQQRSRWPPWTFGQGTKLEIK at or over 0.003 s⁻¹ in terms of koff?
not fulfilled

Please tell me: is the binder VRDN-03039 (antibody, V domains shown) VH: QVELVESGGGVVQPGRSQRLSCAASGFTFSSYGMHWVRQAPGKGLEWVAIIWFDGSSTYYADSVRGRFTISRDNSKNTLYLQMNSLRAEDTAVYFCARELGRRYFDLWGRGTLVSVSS VL: EIVLTQSPATLSLSPGERATLSCRHSQSVSSYLAWYQQKPGQAPRLLIYDASKRATGIPARFSGSGSGTDFTLTISSLEPEDFAVYYCQQRSKWPPWTFGQGTKVESK at or over 0.003 s⁻¹ in terms of koff?
fulfilled

Please tell me: is the binder VRDN-03050 (antibody, V domains shown) VH: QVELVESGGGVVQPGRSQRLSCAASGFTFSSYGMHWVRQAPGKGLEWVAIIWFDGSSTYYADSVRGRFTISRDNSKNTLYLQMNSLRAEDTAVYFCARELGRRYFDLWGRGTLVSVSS VL: EIVLTQSPATLSLSPGERATLSCRASQSVSSYLAWYQQKPGQAPRLLIYDHSKRATGIPARFSGSGSGTDFTLTISSLEPEDFAVYYCQQRSKWPPWTFGQGTKVESK at or over 0.003 s⁻¹ in terms of koff?
not fulfilled
